meta.source: the supplement of paper PMC9170038

System: K4 kissing-loop RNA reporter
experimental_protocol: apparent KD of K4 kissing-loop reporter; higher = weaker reporter binding
assay_context: Eterna round: R107; input ligand: FMN 200 uM
endpoint: apparent KD of K4 kissing-loop reporter
# output: number + unit

- sequence_chain: "GAGCCAGAGGUUGCUGCGGGUUUCAGAGAUACCAGCCGUAUUGUAGGCCCUUGGCAGCUCGAGUGAUGUUCGAGCCGCCUCUGGC [Eredorxela]"
  endpoint: "apparent KD of K4 kissing-loop reporter"
  endpoint_value: "0.111 µM"
- sequence_chain: "AUUUAGACGAGUGAUGUUCGUGAUAUUACAGAGGAUAUGCUUAAAAGCAGAAGGCUGUAUUUAUAUUUGUUAUGUAAUUUUAAAA [JR_ExcFMNA_Sub005]"
  endpoint: "apparent KD of K4 kissing-loop reporter"
  endpoint_value: "0.0799 µM"
- sequence_chain: "CUCCGACUAUCGGCCGCCACUAUCGGAAAGUCCACGGACAUUCAAUGCAGUUAGUGAUGUUAACGUAGGACCGGGAUGAUUUGUA [theeternabot_sameState_KL_Trp_B_9]"
  endpoint: "apparent KD of K4 kissing-loop reporter"
  endpoint_value: "0.543 µM"

In the following, a different sequence is considered.
Exam item: For CAUCUGGACCAAGGAUAUGUGGGCAUAAUAAAAUUACCACCUUAUUUGCAGUAAGUGAUGUUUAACACAGAAGGUGGACAUAGAC [theeternabot_exclusion_KL_FMN_B_10] , write its apparent KD of K4 kissing-loop reporter.
Marked response: 1.17 µM

###

System: MS2 coat protein
experimental_protocol: apparent KD of MS2 coat protein; designed switch direction (-1 OFF switch, 1 ON switch): -1; higher = weaker reporter binding
assay_context: input ligand: none
endpoint: apparent KD of MS2 coat protein (nM)
Field: numeric (nM). Do not append units.

A selection of reference data follows.
- sequence_chain: "CUGGAAAACGAGGAUAUGCACCGGCUCGCUGACGCAGAAGGCGACACAUGAGGAUCACCCAUGUCGGUACGCGA [salish99_ex6_r004_449] (Eterna round: R97, puzzle: Exclusion 6)"
  apparent KD of MS2 coat protein (nM): 18.8
- sequence_chain: "GUCCGGCAUGUAGGAUAUGGAUCCGAUUAGGAUUUAGAAGGACAUGAGGAUCACCCAUGUGCAUUUAAUUAGUCAUUACCGGAC [EXclNG1-LROPPY04] (Eterna round: R96, puzzle: Exclusion NG 1)"
  apparent KD of MS2 coat protein (nM): 16.6
- sequence_chain: "UGUGUGUCAGGAUAUAGUUCGAGUUCGGAAAUGAGCUUGAGCUAGAAGGGACAUGAGGAUCACCCAUGUGCACG [-26.3, -25.3 kcal, A 27%, 1-(ca)1] (Eterna round: R97, puzzle: Exclusion 4)"
  apparent KD of MS2 coat protein (nM): 83.6

Please look at the following sequence next.
Exam item: Provide one value: measured apparent KD of MS2 coat protein of CAGUACUGAGGAUAUACAUGAGGAUCACCCAUGUGUCCUAGCUAGGAAACUAGCAUUAGUAGAAGGCAGUACUG [Fiskers Ex 3 828 mod 6] (Eterna round: R96, puzzle: Exclusion 3)
Marked response: 19.5

###

Recorded apparent KD of K4 kissing-loop reporter values for a group of sequences are listed next.
System: K4 kissing-loop RNA reporter;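 also: bound reporter read as fluorescence of individual clusters on recovered sequencing chips by microscopy, with normalized cluster intensities fitted with a binding model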
experimental_protocol: apparent KD of K4 kissing-loop reporter; higher = weaker reporter binding
assay_context: Eterna round: R107; input ligand: none
Please give the number followed by its unit.

Field: example entries. Status: answers known.
- sequence_chain: "CCUAUCUCGUACGAUACCAGUCAAUGAUCUUUGAUCAAUGCCAUCACCGAGUGAUGUUCGGACCCUUGGCAGCGUAUGAGAUGGG [whbob_Ex_Theo_B_sa105]"
  apparent KD of K4 kissing-loop reporter: "251 nM"
- sequence_chain: "UCCUACGAGGUAACGUGGAUAUCUCGUUGCAAGGAUAUCUGGAAACAGAGAAGGUGCAACAUUAUCGGCAGUGAUGUUGCUGACC"
  apparent KD of K4 kissing-loop reporter: "482 nM"
- sequence_chain: "CUGACUCAAUAGUCAGUGAUGUUGACUGGACGAGGACCGGUACGGCCGCCACUCGAGAGUGGUGUAAAAUAUGUCACAGAGUCAG [Tryp A SS t3b]"
  apparent KD of K4 kissing-loop reporter: "208 nM"
- sequence_chain: "UGUCAUUGGUCUGAUACCAGUUAGCGCGAUAAGCGCAAAACUGGAGUGAUGUUCCCAAAUAACCCUUGGCAGCAGACCGAUGACU [MAT - Same State Theophlline B - Mod of Eli - D13]"
  apparent KD of K4 kissing-loop reporter: "235 nM"
- sequence_chain: "UGACUGGACUGAAGGAGCGUUCAGGUAGGUCGCAUAGGAGUGAUGUUCCAAUGAAGGAGCGAGCAGGUAGGUCGCAGUCUAGUCU [ArgBS 13 #DoubleAptamer #SwitchBubble]"
  apparent KD of K4 kissing-loop reporter: "243 nM"

Exam item: Provide only the value of recorded apparent KD of K4 kissing-loop reporter for GCCAGAGCGCGAAGGAGCGCCCUGACAGGUUGCUGCCGUGGGCAGUGAUGUUGCUCAGUCCGGCAGGUAGGUCGCGUGCUCUGGC
Marked response: 193 nM

Exam item: Note down apparent KD of K4 kissing-loop reporter recorded for AAGCGUAAAAUGGCGGACAUACUGCUCCCACGAGGACCGGUACGGCCGCCACUCGAGUGCGGCAGUGAUGUUGCCGCCUUAGCGU [KL-XTryp-A20]
Marked response: 92 nM

Exam item: Using known records, supply apparent KD of K4 kissing-loop reporter for UGGAGUUGACGAAAAGUCAACUCCUGAGAAGGAGCGCACGAAAGUGCAGGUAGGUCGCUCUACCAGUGAUGUUGGUACUUAAUAA [#OpenEnded 6]
Marked response: 117 nM

Exam item: Note apparent KD of K4 kissing-loop reporter for the sequence shown: UCUGGAGCAUAUGAUACCAGCAGUGAGAGACAGGAAGUAUAGUGAUGUUAUAUGAGAGAAUGCCCUUGGCAGCGUGUGUAGUGGG [SSTheophylB.N]
Marked response: 128 nM

Exam item: Answer with the recorded apparent KD of K4 kissing-loop reporter of UGGAUAUCGUUUAGUCUGGUGAGGUCAGAUACCAGACUAGCGAUAGUCCCUUGGCAGCUGAUUAUGAUUGAGUGAUGUUCAAUCG [Theo A Ex t9a] only.
Marked response: 175 nM

Exam item: Please look at this sequence and report its apparent KD of K4 kissing-loop reporter: ACCUACCAUUAGUGAUGUUAAUGGACGGAAGGAGCGCAGAUAUCUGCAGGUAGGUCGCCGAAGGCUAGACAUUGUCUAGCCAUUA [AK1.1 SS Arginine A]
Marked response: 197 nM

Exam item: Give apparent KD of K4 kissing-loop reporter for AAACAUCACUGGGAGUGAUGUUCUCAGUGACGAGGACCGGUACGGCCGCCACUCGCGAGAGAUAUAGUCUAGUAAUGACUGCAUU [Excl Tryptophan A V9]
Marked response: 292 nM

###

System: MS2 coat protein
experimental_protocol: apparent KD of MS2 coat protein, switch ON state; designed switch direction (-1 OFF switch, 1 ON switch): -1; higher = weaker reporter binding
assay_context: FMN input: 0 or 200 uM; Eterna round: R93 (includes R88 designs)
apparent KD of MS2 coat protein overview
Your answer should be a plain number; it is taken to be in nM.

Exam item: Supply measured apparent KD of MS2 coat protein of AACAUGUUAGGAUAUAGAAGAAAAGAAAAGAAAGAAAAGAACUAGAAGGAACAUGAGGAUCACCCAUGUAAGAA [EteRNA is fun!] in your reply.
Marked response: 30.9

Exam item: Determine from records and report apparent KD of MS2 coat protein for AAAAACGCAGGAUAUACAUGAGGAUCACCCAUGUAAAAAAAAAAAAAGGGAAAAAAAAGUAGAAGGGCGAAAAA [Menkhaure Snaaib]
Marked response: 21.4

Exam item: Specify apparent KD of MS2 coat protein for AACAGUACAGGAUAUACAUGAGGAUCACCCAUGUCACAGAAAUAAAACAAAAAUAAAAGUAGAAGGGUACUGGA [Ruby 41] and stop.
Marked response: 31.2

Exam item: Write down apparent KD of MS2 coat protein measured for item CCAAGACAUGAGGAUCACCCAUGUGAGGAUAUAGGUGUAUGCAAAAAAAAGUUAAAAACUAGAAGGCACAGAAA [JR_Exc001_Sub306]
Marked response: 30.7

Exam item: Provide one value: measured apparent KD of MS2 coat protein of AAAAAGUCAGGAUAUCUGGAUAGGAAAAAGAAAACCUAUCCAGAGAAGGGACAUGAGGAUCACCCAUGUAAAAA [JL cataway mod 1]
Marked response: 49.2

Exam item: Indicate its recorded apparent KD of MS2 coat protein; the sequence in question is AACUGGCUAGGAUAUACGUAAUAAAAUAUCAGUGAGAUUUCACAUGAGGAUCACCCAUGUAGAAGGAGCAAAAU [Esxereorar]
Marked response: 24.5

Exam item: Dear colleague, please send me the reported apparent KD of MS2 coat protein for AAAAAACAUGAGGAUCACCCAUGUGAGGAUAUUGGUAUUGAGGGUAUAAUCUCAAUAGCGAGAAGGCGCAUAAA [Brourd 613 Mod 14 - Jieux - Exclusion 1] when you can.
Marked response: 31.7

Exam item: Read off the recorded apparent KD of MS2 coat protein for GAAAACAGAGGAUAUACAUGAGGAUCACCCAUGUAAAAAUGUAGAAGGCUGAAAGAAAGAAGAAGGAAAGAAAA [Meechl Ex3 R2 m2]
Marked response: 24.2

Exam item: Name the recorded apparent KD of MS2 coat protein of the sequence listed here: AAAAGGUGAGGAUAUACAUGAGGAUCACCCAUGUAGAAAGGAAGUGUAAAAAAAAAGUGUAGAAGGCAUCAUGA [MS2 Riboswitches On Chip Exclusion 3 wbt3]
Marked response: 39.2

Exam item: Given AGAAAACAUGAGGAUCACCCAUGUAAGGAUAUGCUGAAAAACACGGAAAAAACGUGCAGCAGAAGGUACAAAGA [Mat - Exclusion 1 - Eli mod - D95] , respond with its apparent KD of MS2 coat protein.
Marked response: 22.4

Exam item: Query apparent KD of MS2 coat protein for AAAGGACGAGGAUAUACAUGAGGAUCACCCAUGUAAGAAGCAUAAUAAAAUAACUUAUGUAGAAGGCGUCCAAA [Mat - Exclusion 3 - Eli mod - D94]
Marked response: 26
